- System: SNB-78
- testDetails: NCI tumour cell line growth inhibition, 48 h
Calls of active or inactive are those of the source. Cut-off read from the data, not from the text of the source: active = GI50 up to about 1.1 µM and inactive = higher.
Answer each item with its documented GI50.

Below, each entry is followed by its recorded GI50 result.
                                   compound  assaytarget             measured
0  CS(=O)(=O)C(C#N)c1nc2ccccc2nc1Cl (stereo unspecified)       SNB-78  > 100 µM (inactive)
1           Cc1cc(C)n2c(-c3ccccc3)c(C)cc2n1       SNB-78   94.6 µM (inactive)
2       COc1c(OC)c(N)c2cc(C)c(=O)c(C)cc2c1N       SNB-78  > 100 µM (inactive)

Hey, quick one: what's GI50 for each of these?
1. O=C(NN1C(=O)C(Cl)C1c1ccccc1Cl)c1ccccc1O (stereo unspecified)
2. CCOc1ccccc1Nc1nc(C)c(C(=O)CC(=O)C(=O)Nc2ccccc2)s1
3. C[Si]12OCCCN(CCO1)CCO2
4. Cc1cc(Br)ccc1/N=N/C1C(=O)ON=C1c1ccccc1 (stereo unspecified)

[A]
["> 100 µM (inactive)", "> 100 µM (inactive)", "> 100 µM (inactive)", "> 100 µM (inactive)"]

Give one value of GI50 per listed compound.
1. O=C(CN1CCN(c2ccccc2)CC1)N1CCc2c([nH]c3ccccc23)C1c1cccnc1 (stereo unspecified)
2. c1ccc(CN2CCc3[nH]c4ccccc4c3C2)cc1
3. Cc1ccc(NC(=O)c2cccc([N+](=O)[O-])c2O)c(C)c1
4. Cc1cc(O)nc(CNC(=O)c2cccc(C(=O)NCc3cc(O)nc(C)n3)c2)n1

[A]
["13.5 µM (inactive)", "35.6 µM (inactive)", "26.9 µM (inactive)", "> 100 µM (inactive)"]
